Test system: KG1 cells (FLT3 wt)
assay name: in vitro standard cytotoxicity assay (MTS), Ven and/or 5-Aza 48 h followed by Men 24 h
Assay type: cell-based, human
setup conditions: single agent cytotoxic assay, same time points as combination, read-out: IC50 dose level
Method: In an in vitro standard cytotoxicity assay, three AML cell lines (KG1 [FLT3 wt], MV4-11 [FLT3 ITD] and MOLM-13 [FLT3 ITD]) were treated with Ven and/or 5-Aza for 48 hours, followed by Men treatment for additional 24 hours. […] For cytotoxicity studies cells were seeded at appropriate density (50.000 cells/well) prior to addition of Ven and 5-Aza at day 0. […] All possible combinations were assessed: Men+Ven, Ven+5-Aza, Men+5-Aza and men+5-Aza+Ven (mav). […]
parameter: IC50
Write your answer as a measured quantity: the number, then the unit.

I have this compound here, CC(C)n1c(C2CCNCC2)nc2c([N+](=O)[O-])c(Br)c(Br)cc21 [Men] , and I need its recorded IC50. 569 nM
